Biological target: T1, human AMHRII (anti-Mullerian hormone receptor type 2) (human, UniProt Q16671 18-573)
T1 construct: whole, on cells; also called AMHR2; human AMHR2
T1 sequence (looked up): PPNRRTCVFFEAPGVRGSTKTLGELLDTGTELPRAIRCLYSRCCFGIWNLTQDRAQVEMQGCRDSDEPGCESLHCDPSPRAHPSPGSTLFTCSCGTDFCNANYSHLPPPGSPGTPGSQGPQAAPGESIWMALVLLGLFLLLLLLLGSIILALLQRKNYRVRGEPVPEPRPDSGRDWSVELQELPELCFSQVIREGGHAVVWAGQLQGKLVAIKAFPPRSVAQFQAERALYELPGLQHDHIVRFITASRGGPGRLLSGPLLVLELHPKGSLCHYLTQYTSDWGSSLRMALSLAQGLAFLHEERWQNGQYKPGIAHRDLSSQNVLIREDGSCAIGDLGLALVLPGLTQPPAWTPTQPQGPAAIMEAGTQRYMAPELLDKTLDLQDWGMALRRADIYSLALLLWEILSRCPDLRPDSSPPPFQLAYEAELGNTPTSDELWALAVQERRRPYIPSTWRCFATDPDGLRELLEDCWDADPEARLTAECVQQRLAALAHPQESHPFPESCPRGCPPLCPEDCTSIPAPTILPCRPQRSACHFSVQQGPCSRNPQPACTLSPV
Test: FACS on Rko cells over-expressing human AMHR2
Recorded measurements of Top (MFI), one per entry
Field format: number, assumed MFI, no unit text.

For orientation, consider the following solved cases.
binder	Top (MFI)
xi94C4C3 hIgG1 (antibody, V domains shown, Murine variable domains in human chimeric format, human IgG1; also called xi94C4C3 hlgG1; 94C4C3 (chimeric)) VH: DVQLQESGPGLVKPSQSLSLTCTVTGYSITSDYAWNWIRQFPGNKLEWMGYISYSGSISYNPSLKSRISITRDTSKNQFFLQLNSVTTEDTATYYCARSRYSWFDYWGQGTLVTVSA VL: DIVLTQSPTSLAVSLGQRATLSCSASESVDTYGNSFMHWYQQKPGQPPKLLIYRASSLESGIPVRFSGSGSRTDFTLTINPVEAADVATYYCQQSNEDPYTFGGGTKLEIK	8380
xi108F3D1E9 hIgG1 (antibody, V domains shown, Murine variable domains in human chimeric format, human IgG1; also called xi108F3D1E9 hlgG1; 108F3D1E9 (chimeric)) VH: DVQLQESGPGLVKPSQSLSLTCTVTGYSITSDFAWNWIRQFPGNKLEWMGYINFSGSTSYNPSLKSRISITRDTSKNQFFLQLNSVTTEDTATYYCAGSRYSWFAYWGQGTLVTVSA VL: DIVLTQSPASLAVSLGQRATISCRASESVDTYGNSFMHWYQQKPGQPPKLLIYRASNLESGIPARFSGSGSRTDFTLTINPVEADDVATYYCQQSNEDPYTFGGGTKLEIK	8190

Let us examine a further case.
Q. Which value of Top (MFI) has been reported for xi103C5G10F9 hIgG1 (antibody, V domains shown, Murine variable domains in human chimeric format, human IgG1; also called 103C5G10F9 (chimeric)) VH: DVQLQESGPGLVKPSQSLSLTCTVTGYSITSDYAWNWIRQFPGNKLEWMGYISYSGSTSYNPSLKSRISITRDTSKNQFFLQLNSVTTEDTATYYCARSRYSWFDYWGQGTLVTVSA VL: DIVLTQSPTSLAVSLGQRATLSCSASESVDTYGNSFMHWYQQKPGQSPKLLIYRASSLESGIPARFSGSGSRTDFTLTINPVEAADVATYYCQQSNEDPYTFGGGTKLEIK in the records?
A. 8580
